Biological target: T1, PSMA Fab
T1 construct: also called Anti-PSMA Fab; 006 PSMA Fab
Assay: clonal phage ELISA on biotinylated PSMA Fab captured on neutravidin, anti-M13 HRP detection;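 further: crude clonal phage supernatants added to wells pretreated with PSMA antigen in blocking buffer or with blocking buffer only, then briefly incubated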
Where no end group is shown, it is not given here.
metricName: Phage binding ELISA signal, Anti-PSMA Fab

Exercise: Respond only with Phage binding ELISA signal, Anti-PSMA Fab recorded for FDMLCNPKWMCEGF (Peptide-180 library clone, tested as clonal phage supernatant (peptide fused to the pIII filament of the bacteriophage)) [Phage-2345]
Key: 1.43

Exercise: Respond only with Phage binding ELISA signal, Anti-PSMA Fab recorded for PMKWCIPEWMCIAS (Peptide-180 library clone, tested as clonal phage supernatant (peptide fused to the pIII filament of the bacteriophage)) [Phage-2351]
Key: 1.43

Exercise: Respond only with Phage binding ELISA signal, Anti-PSMA Fab recorded for MDRWCIPEWMCARH (cysteine pairing not given here; also: displayed on bacteriophage by fusion to pIII, Peptide-180 library clone, tested as clonal phage supernatant (peptide fused to the pIII filament of the bacteriophage)) [Phage-2350]
Key: 1.43

Exercise: Respond only with Phage binding ELISA signal, Anti-PSMA Fab recorded for PVKWCVPPWMCAAT (cysteine pairing not given here; also: displayed on bacteriophage by fusion to pIII, Peptide-180 library clone, tested as clonal phage supernatant (peptide fused to the pIII filament of the bacteriophage)) [Phage-2358]
Key: 1.42
